# TARGET_ENTITY: T1, human IL-18BP (human, UniProt O95998 31-194)
# T1 construct: UniProt printed as 095998; also called hIL-18BP
# T1 sequence: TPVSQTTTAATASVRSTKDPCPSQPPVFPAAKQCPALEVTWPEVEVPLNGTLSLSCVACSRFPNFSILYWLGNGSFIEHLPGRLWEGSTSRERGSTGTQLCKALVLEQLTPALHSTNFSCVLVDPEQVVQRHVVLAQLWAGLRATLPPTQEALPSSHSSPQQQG
# TEST_NAME: BLI, apparent KD
pKd: −log10 of the molar value.
Parameter pKd: see the listing below.

>  <BINDER>
SA301a HC-H52R (antibody, name in Kabat numbering, V domains shown, IgG1 kappa) VH: QVQLQESGPGLVKPSQTLSLTCTVSGYSITSDYNSHWIRQPPGKGLEWIGYIRYSGSTNYNPSLKSRVTISRDTSKNQFSLKLSSVTAADTAVYYCARNYGSIYVNYFDYWGQGTLVTVSS VL: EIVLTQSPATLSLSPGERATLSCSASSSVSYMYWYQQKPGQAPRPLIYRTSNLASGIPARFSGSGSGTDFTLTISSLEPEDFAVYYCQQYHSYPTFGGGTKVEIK

>  <pKd>
8.87

$$$$
>  <BINDER>
SA301a HC-Y53I (antibody, name in Kabat numbering, V domains shown, IgG1 kappa) VH: QVQLQESGPGLVKPSQTLSLTCTVSGYSITSDYNSHWIRQPPGKGLEWIGYIHISGSTNYNPSLKSRVTISRDTSKNQFSLKLSSVTAADTAVYYCARNYGSIYVNYFDYWGQGTLVTVSS VL: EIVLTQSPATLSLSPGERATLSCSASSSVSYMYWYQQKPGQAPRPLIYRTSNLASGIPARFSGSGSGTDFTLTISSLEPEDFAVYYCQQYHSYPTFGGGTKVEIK

>  <pKd>
8.73

$$$$
>  <BINDER>
SA301a HC-Y53M (antibody, name in Kabat numbering, V domains shown, IgG1 kappa) VH: QVQLQESGPGLVKPSQTLSLTCTVSGYSITSDYNSHWIRQPPGKGLEWIGYIHMSGSTNYNPSLKSRVTISRDTSKNQFSLKLSSVTAADTAVYYCARNYGSIYVNYFDYWGQGTLVTVSS VL: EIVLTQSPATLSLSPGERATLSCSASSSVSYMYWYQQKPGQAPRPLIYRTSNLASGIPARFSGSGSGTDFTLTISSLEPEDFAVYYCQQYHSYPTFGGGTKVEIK

>  <pKd>
9.40

$$$$
